test: PK model with a metabolite compartment fitted simultaneously to i.v. and i.p. rat plasma data; details: male, Wistar, in vivo
Where a name gives a salt, the structure may show the parent alone.
Reported Endpoint: half-life (h)
Give the number; h is assumed, so skip it.

Kindly indicate its recorded half-life. Item: CN1c2ccccc2C(NCCCCC(=O)O)c2ccc(Cl)cc2S1(=O)=O (stereo not shown) [MC5, tianeptine metabolite MC5 sodium salt]
1.66

###

test: Pharmacokinetic study in rats after single i.v. or i.p. tianeptine, non-compartmental analysis; settings: male, Wistar, rat, in vivo, iv, 1 mg/kg
Counter-ions that a name gives are not always drawn.
Reported Endpoint: half-life (h)
Give the number; h is assumed, so skip it.

Kindly indicate its recorded half-life. Item: CN1c2ccccc2C(NCCCCC(=O)O)c2ccc(Cl)cc2S1(=O)=O (stereo not shown) [MC5, tianeptine metabolite MC5 sodium salt]
7.53

###

test: PK model with a metabolite compartment fitted simultaneously to i.v. and i.p. rat plasma data; conditions: male, Wistar, in vivo
Structures can show the parent of a compound that is named as a salt.
Reported Endpoint: k el (s⁻¹)
Give the number; s⁻¹ is assumed, so skip it.

Kindly indicate its recorded k el. Item: CN1c2ccccc2C(NCCCCC(=O)O)c2ccc(Cl)cc2S1(=O)=O (stereo not shown) [MC5, tianeptine metabolite MC5 sodium salt]
0.000116

###

assay: Pharmacokinetic study in rats after single i.v. or i.p. tianeptine, non-compartmental analysis; settings: male, Wistar, rat, in vivo, ip, 10 mg/kg
Structures can show the parent of a compound that is named as a salt.
Reported Endpoint: Cmax (ng/mL)
Give the number; ng/mL is assumed, so skip it.

Kindly indicate its recorded Cmax. Item: CN1c2ccccc2C(NCCCCC(=O)O)c2ccc(Cl)cc2S1(=O)=O (stereo not shown) [MC5, tianeptine metabolite MC5 sodium salt]
2020
